- MEASURED_ON: Human SARS-CoV-2_Wuhan S (SmT1) (SARS-CoV-2 (Wuhan), UniProt P0DTC2 14-1208)
- TEST_SUMMARY: SPR, VHH over immobilised S
READOUT_KIND: Kd (nM)
Numeric only. Scale: nM

NRCoV2-MRed07 VHH (VHH) VHH: EVQLVESGGGLVQPGGSLTLSCAASGSIGPFNTMGWYRQAPGNQREPAAIITRGGVTNYADSVKGRFTISRDNAKNAVYLQMDSLKPDDTAVYYCYANYGWAIPYWGNGTQVTVSS | 0.105

Sure, the documented Kd for NRCoV2-SR13 VHH (VHH) VHH: EVQLVESGGGLVTTGGSLRLSCATSGSRFGSKHMAWYRQAPGKQRDLVAAISSGGSTHYGSSVKGRFTISRDNAKSTVYLQMNSLNPEDTAVFYCNMGGWDYRSNTYIPGSRSDYWGQGTQVTVSS is 3.56
